Tested on: IGROV1 ovarian
Test: NCI tumour cell line growth inhibition, 48 h; in the data active = GI50 below about 0.43 µM; inactive = the rest
Please answer using one outcome listed in yes (1) = active, no (0) = inactive

Answered cases to consult:
COc1cc2c(c(OC)c1O)C(=O)C(OC)C(c1ccc(O)c(O)c1)O2 (centres undefined)
no (0)
COc1ccc2c(c1)C(=O)/C(=C/c1ccc(OCC(=O)Nc3nccs3)cc1)O2
yes (1)

Ask: Name the outcome recorded for C=C(CNCCO)[C@@H]1CC[C@]2(CO)CC[C@]3(C)[C@H](CC[C@@H]4[C@@]5(C)CCC(N)C(C)(C)[C@@H]5CC[C@]43C)[C@@H]12 (some centres undefined) in the assay.
Reply: no (0)

Ask: Please share the test call associated with CCCCCCCC(=O)SCC/C=C/[C@@H]1CC(=O)NCc2cccc(n2)C2=N[C@@](C)(CS2)C(=O)N[C@@H](C(C)C)C(=O)N1 .
Reply: yes (1)

====

Tested on: NCI-H23 lung
Experiment: NCI tumour cell line growth inhibition, 48 h
# maps each entry to its TGI

Field: example entries. Status: answers known.
COc1ccccc1NC(=O)CC(=O)n1nc(C)c(N=Nc2ccccc2C(=O)O)c1C
> 100 µM
c1cc2c(cc1NC1=NCCO1)CCC2
> 10 µM
CCNC1C2(CCCCC2)NC(=O)C12CCCCC2 (stereo not given)
> 100 µM

Measured TGI of CCCCCCCC(=O)SCC/C=C/[C@@H]1CC(=O)NCc2cccc(n2)C2=N[C@@](C)(CS2)C(=O)N[C@@H](C(C)C)C(=O)N1 : > 33.3 µM

====

System: HCT-116 colon
Experiment: NCI tumour cell line growth inhibition, 48 h
Measured TGI of individual entries
Give your result in µM as a bare value.

O=C1C=Cc2c(Br)sc(Br)c21
77.1
C=Cc1nc2c(Cl)ncnc2n1Cc1ccccc1
4.72

Next:
TGI for COc1ccc(/C=C\c2cc(OC)c3c(c2)OCO3)c(O)c1O is 17.7

====

Tested on: RPMI-8226 leukemia
Assay: NCI tumour cell line growth inhibition, 48 h; in the data active = GI50 below about 0.43 µM; inactive = the rest
Assign a class; possible classes are T = active, F = inactive

COc1c2ccoc2c(/C=C/C=O)c2oc(-c3ccccc3)cc(=O)c12
F
Oc1ccc(Cl)cc1-c1cc(-c2ccccc2Cl)[nH]n1
F
CN(C)CCCNC1=C(Cl)C(=O)c2ccccc2C1=O
F
O=c1n(CC2CO2)c(=O)n(CC2CO2)n1CC1CO1 (stereo not drawn)
F
CCCCCCCC(=O)SCC/C=C/[C@@H]1CC(=O)NCc2cccc(n2)C2=N[C@@](C)(CS2)C(=O)N[C@@H](C(C)C)C(=O)N1
F

Ask: Entry COc1cc2c(c(OC)c1O)C(=O)C(OC)C(c1ccc(O)c(O)c1)O2 (stereo not drawn) : call = ?
Reply: T

Ask: // param item: CSc1ccccc1C#C/C=C\C#Cc1ccccc1N1CCCC1=O ; yields the recorded call
Reply: F

Ask: Hi, do you know how O=C1/C(=C/c2ccc([N+](=O)[O-])cc2)COc2ccc(O)c(O)c21 came out in this test?
Reply: T

====

Tested on: HCT-116 colon
Assay: NCI tumour cell line growth inhibition, 48 h
endpoint_label: log10(TGI) (log10 of the value in µM)
Log10 applied to TGI; unit prior to transform: µM.

Reference set, count: 3
CC(=O)OC(C)C(=O)C1c2cccc(O)c2C(=O)c2c(O)cc(C)cc21 (stereo unspecified)
0.04
CC(=O)Oc1c(C)c2c(c3ncccc13)OC(C)C2 (stereo unspecified)
1.51
O=[N+]([O-])c1cnc(Sc2ccncn2)s1
0.52

The reported value for CC(C)(C)c1cc(C(=O)/C=C/c2c(Cl)cccc2Cl)cc(C(C)(C)C)c1O in terms of log10(TGI) is 1.37

Query CN(C)CCCNC1=C(Cl)C(=O)c2ccccc2C1=O yields log10(TGI) of 0.78

Data point: COc1ccc(-c2cc(-c3ccc(Nc4nc(Nc5ccccc5)nc(Nc5ccc(Cl)cc5)n4)cc3)nc(N)c2C#N)cc1 ; log10(TGI) = 0.14

====

Tested on: SK-OV-3 ovarian
Assay: NCI tumour cell line growth inhibition, 48 h
endpoint_label: TGI (µM)
Express your answer in µM, writing the number without its unit.

Reference set (3 entries):
CCOc1ccccc1-n1c(CN2CCN(C(=O)COc3ccc(CNCCCCCCN4C5CCCC4CC(OC(=O)Nc4cc(C)ccc4OC)C5)cc3)CC2)nc2ccccc2c1=O (stereo not given)
3.45
CC(=O)[O][Hg][c]1c(N)c(C)cc(C)c1F
15.5
O=C(NCCNc1nccc(-c2c(-c3cccc(O)c3)nc3sccn23)n1)c1ccccc1O
39.7

For reference, reported TGI for Cc1cc(=O)n2[nH]c(-c3ccc(C(C)(C)C)cc3)cc2n1 stands at 86

For record NC1CCC(Nc2nc(NCc3ccc(-c4ccco4)nc3)c3ncn(C4CCCC4)c3n2)CC1 (stereo not given) the listed TGI is 15.6

====

System: NCI-H23 lung
Test: NCI tumour cell line growth inhibition, 48 h
endpoint_label: TGI (µM)
Return type: number; implicit unit µM.

NC(CSC(c1ccccc1)(c1ccccc1)c1ccc2c(c1)OCO2)C(=O)O (configuration not stated)
32

TGI measured on CC(C)(C)c1cc(C(=O)/C=C/c2c(Cl)cccc2Cl)cc(C(C)(C)C)c1O = 48.9

TGI for Cc1cc(=O)n2[nH]c(-c3ccc(C(C)(C)C)cc3)cc2n1 is 80.6

For record Cc1c(-c2ccc(O)cc2)n(CCCCCCNCCOC(=O)NCCCc2ccc(N(CCCl)CCCl)cc2)c2ccc(O)cc12 the listed TGI is 3.45

====

Test system: UO-31 renal
Assay: NCI tumour cell line growth inhibition, 48 h
endpoint_label: TGI

CCN(CC)CC(C(=O)Nc1c(C)cccc1C)/C(C)=N\NC(=O)C[N+](C)(C)C (stereo unspecified)
> 100 µM

Noted for CC(=O)N1[C@H](C(=O)O)CS[C@H]1c1ccncc1 : its TGI reads > 100 µM

// TGI lookup, compound = CSC(=N/C=C/c1ccccc1)SC , result: > 100 µM

# compound COc1cccc2c1C(=O)C1=C(C2=O)C(O)CC(C)(C)O1 (stereo unspecified) ; its TGI = > 100 µM

The recorded TGI for O[C@H]1[C@H]2c3cc4c(cc3CN3CCC(=C[C@@H]1O)[C@H]23)OCO4 is 4.77 µM

Data point: Cc1c2n(c(=O)[nH]c1=O)C1OC(CO)C(O2)C1N=[N+]=[N-] (stereo unspecified) ; TGI = > 100 µM

The measured TGI associated with CCOC(=O)c1ncn2c1[nH]c(=S)c1ccccc12 reads > 100 µM

====

Tested on: SN12C renal
Assay: NCI tumour cell line growth inhibition, 48 h
GI50 values for the molecules below.

GI50 measured on C=C(CNCCO)[C@@H]1CC[C@]2(CO)CC[C@]3(C)[C@H](CC[C@@H]4[C@@]5(C)CCC(N)C(C)(C)[C@@H]5CC[C@]43C)[C@@H]12 (stereo partly drawn) = 1.97 µM

GI50 measured on Cn1ccnc1C(=O)/C=C/c1ccc(CC(=O)Nc2ccc(Br)cc2)cc1 = 3.88 µM

Lab note: CCCCCCCCSC1=CC(=O)c2nc3ccccc3c3ccnc1c23 gave GI50 of 14 µM

For reference, reported GI50 for NC(CSC(c1ccccc1)(c1ccccc1)c1ccc2c(c1)OCO2)C(=O)O (stereo not drawn) stands at 0.633 µM

====

Tested on: SR leukemia
Assay: NCI tumour cell line growth inhibition, 48 h
Reported TGI is given for each of the following compounds.

O[C@H]1[C@H]2c3cc4c(cc3CN3CCC(=C[C@@H]1O)[C@H]23)OCO4
4.24 µM
O=C(CN1CCN(c2cc3c(cc2F)c(=O)c(C(=O)N/N=C/c2ccccc2O)cn3C2CC2)CC1)N/N=C\c1ccccc1O
> 100 µM
Oc1ccc(Cl)cc1-c1cc(-c2ccccc2Cl)[nH]n1
> 100 µM

C1=CC2C=CC(C=C1)P2c1ccccc1 (centres undefined) has a reported TGI of > 100 µM

====

Test system: OVCAR-8 ovarian
Assay: NCI tumour cell line growth inhibition, 48 h
TGI values by entry

The compound listed as O=c1n(CC2CO2)c(=O)n(CC2CO2)n1CC1CO1 (stereo unspecified) shows TGI equal to > 100 µM

Lab book: TGI of C=CCC1(O)CC(n2cc(C)c(=O)[nH]c2=O)OC1CO[Si](C)(C)C(C)(C)C (stereo unspecified) noted as > 100 µM

TGI measured on C=Cc1nc2c(Cl)ncnc2n1Cc1ccccc1 = 12 µM

Documented TGI of CC(=O)C(CN(C(C)C)C(C)C)C(c1ccccc1)c1c(O)c2ccccc2oc1=O (stereo unspecified) : > 100 µM

The recorded TGI for O=C1C=Cc2c(Br)sc(Br)c21 is > 100 µM

Value of measured TGI for the entry C/C(CCn1[nH]c(=O)ccc1=O)=N\O : > 100 µM
